- testedOn: DNA topoisomerase 1 (Homo sapiens)
- Sequence (P11387 whole entry): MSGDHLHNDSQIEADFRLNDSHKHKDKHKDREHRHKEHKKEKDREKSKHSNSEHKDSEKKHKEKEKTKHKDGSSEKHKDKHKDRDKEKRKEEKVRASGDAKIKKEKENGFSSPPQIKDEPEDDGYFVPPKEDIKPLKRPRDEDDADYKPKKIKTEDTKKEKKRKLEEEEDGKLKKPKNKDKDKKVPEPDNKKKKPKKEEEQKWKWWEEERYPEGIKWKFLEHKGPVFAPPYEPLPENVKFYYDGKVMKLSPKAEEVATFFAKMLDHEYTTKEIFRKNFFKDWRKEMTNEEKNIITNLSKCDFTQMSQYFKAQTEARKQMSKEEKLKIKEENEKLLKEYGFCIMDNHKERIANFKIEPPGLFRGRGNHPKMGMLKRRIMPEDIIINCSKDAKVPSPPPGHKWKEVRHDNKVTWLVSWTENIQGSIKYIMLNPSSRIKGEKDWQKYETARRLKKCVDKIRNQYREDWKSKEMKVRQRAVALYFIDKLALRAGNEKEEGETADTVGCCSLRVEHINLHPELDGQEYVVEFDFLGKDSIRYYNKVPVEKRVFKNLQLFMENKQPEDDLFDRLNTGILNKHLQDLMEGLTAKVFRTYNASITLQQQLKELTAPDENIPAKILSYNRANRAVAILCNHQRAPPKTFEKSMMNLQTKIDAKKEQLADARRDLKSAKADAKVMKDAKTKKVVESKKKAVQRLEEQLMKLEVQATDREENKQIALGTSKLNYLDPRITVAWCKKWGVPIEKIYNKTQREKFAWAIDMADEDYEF
- assaySummary: Inhibition of Topoisomerase I by cleavage complex formation in human HL-60 cells
- Type: cell-based
reportedProperty: pIC50
Give bare numbers, as −log10 of the molar value.

compound | reportedProperty | resultValue
CCC1(O)C(=O)OCc2c1cc1n(c2=O)Cc2cc3c(Cl)cccc3nc2-1 (racemic) | pIC50 | 6.72
CC[C@@](O)(C(=O)[O-])c1cc2n(c(=O)c1CO)Cc1cc3c(N)c4c(cc3nc1-2)OCO4.[Na+] | pIC50 | 5.37
CCC(O)(C(=O)[O-])c1cc2n(c(=O)c1CO)Cc1cc3c(N)c4c(cc3nc1-2)OCO4.[Na+] (racemic) | pIC50 | 5.26
CCC(O)(C(=O)O)c1cc2n(c(=O)c1CO)Cc1cc3ccccc3nc1-2 (racemic) | pIC50 | 5.70
CCC1(O)C(=O)OCc2c1cc1n(c2=O)Cc2cc3c([N+](=O)[O-])c4c(cc3nc2-1)OCO4 (racemic) | pIC50 | 6.66

Record pIC50 for all entries; do not skip any.
1. CCC1(O)C(=O)OCc2c1cc1n(c2=O)Cc2cc3c(NC(=O)CN)cccc3nc2-1.Cl (racemic)
2. CCC1(O)C(=O)OCc2c1cc1n(c2=O)Cc2cc3c(N)cccc3nc2-1 (racemic) [RS-9-Aminocamptothecin]

6.24
6.36
